assay: qHTS assay for identifying genotoxic compounds that show differential cytotoxicity against isogenic chicken DT40 cell lines with known DNA damage response pathways - wild type cell line (AID 743012); conditions: DT40 wild type chicken cells viability, CellTiter-Glo, 40 h; series mostly up to 68.4 µM; further: nearly all actives have a fitted effect of over 60% in size; further: potency means the concentration at half of the fitted maximal effect
Records with an inconclusive call do not appear. Activity calls are given as the source filed them. The call rests on the fitted dose curve; in most records, active means well fitted cell-killing curve with a large enough effect in the repeat runs; inconclusive means weak or mixed curves, or effect the other way; inactive means no such curve, though single readings can be large or run the other way.
MEASURE NAME: Potency

Check out these entries, answers already filled in.
COMPOUND | Potency
N#CC1(N2CCCCC2)CCCCC1 | inactive
CN1CC[C@@]23CCCC[C@@H]2[C@@H]1Cc1ccc(O)cc13 | inactive
CN1[C@@H]2CC[C@H]1CC(OC1c3ccccc3CCc3ccccc31)C2 (stereo partly specified) | 7.17 µM (active)
COC1=CC=C2[C@H]3Cc4ccc(OC)c5c4[C@@]2(CCN3C)[C@H]1O5 | inactive
C[C@]12CC[C@H]3[C@@H](CCC4=C(O)C(=O)CC[C@@H]43)[C@@H]1CC[C@@H]2OC(=O)CCC1CCCC1 | inactive

As a next step, examine the compound that follows.
Query: Fill in: Potency of C[C@@H](Cc1ccccc1)N(C)C is ___
Response: inactive

---

target: Acetylcholinesterase (Homo sapiens) (UniProt P22303); assay: Acetylcholinesterase (AChE) small molecule antagonists: enzyme-based qHTS assay (AID 1347397); details: AChE enzyme activity inhibition; series mostly up to 115 µM; further: nearly all actives have a fitted effect of over 55% in size
Sequence (P22303 whole entry, looked up): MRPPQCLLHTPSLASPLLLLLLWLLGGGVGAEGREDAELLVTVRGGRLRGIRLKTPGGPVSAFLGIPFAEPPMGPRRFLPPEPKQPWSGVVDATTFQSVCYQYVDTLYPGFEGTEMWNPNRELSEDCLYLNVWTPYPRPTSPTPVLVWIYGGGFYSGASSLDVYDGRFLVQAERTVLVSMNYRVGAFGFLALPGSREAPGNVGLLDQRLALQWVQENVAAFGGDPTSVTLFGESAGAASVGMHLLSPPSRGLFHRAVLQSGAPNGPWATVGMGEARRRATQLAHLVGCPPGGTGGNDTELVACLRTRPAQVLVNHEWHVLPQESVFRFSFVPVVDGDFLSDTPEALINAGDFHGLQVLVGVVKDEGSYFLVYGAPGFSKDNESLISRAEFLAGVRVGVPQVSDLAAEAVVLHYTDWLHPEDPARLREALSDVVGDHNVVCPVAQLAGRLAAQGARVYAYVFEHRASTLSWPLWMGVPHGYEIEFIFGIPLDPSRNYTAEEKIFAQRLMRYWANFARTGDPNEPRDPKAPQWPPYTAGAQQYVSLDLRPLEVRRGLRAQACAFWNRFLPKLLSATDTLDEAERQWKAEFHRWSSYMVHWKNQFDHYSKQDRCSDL
The source made the active and inactive calls. The call rests on the fitted dose curve.
MEASURE NAME: outcome

Some entries whose results are on file:
COMPOUND | RESULT
CC(N)C(=O)OC(C)(C)Cc1ccc(Cl)cc1 (centres undefined) | inactive
O=C(OCc1ccccc1)c1ccccc1 | inactive
CCCCCCCC(=O)OCCCCCC | inactive
C[C@@H](O)C(=O)O | inactive
O=c1c(O)c(-c2ccc(O)c(O)c2)oc2cc(O)cc(O)c12 | inactive

Query: outcome; subject: CCOC(=O)C(=O)CCc1ccccc1
Response: inactive

Query: Need outcome, item Cc1ccc(/C(=C\CN2CCCC2)c2ccccn2)cc1
Response: inactive

---

assay: qHTS assay for small molecule agonists of the p53 signaling pathway (AID 651631); conditions: HCT-116 p53RE-bla reporter, beta-lactamase FRET ratio, 16 h; series mostly up to 73.3 µM; further: nearly all actives have a fitted effect of over 15% in size
Records with an inconclusive call do not appear. Activity calls are given as the source filed them. Calls follow the shape of the full dose curve.
One label from this list, please: active, inactive

Here are 3 molecules together with their reported answers.
MOLECULE | ANSWER LABEL
C=CC(=O)OCCCCCCCC(C)C | inactive
COC(COC(N)=O)C1=C(N2CC2)C(=O)C(C)=C(N2CC2)C1=O (stereo not given) | active
C[C@@H]([C@H](O)c1ccccc1)N(C)C | inactive

Query: Any idea what this test logged for Cc1ccc(N(SC(F)(Cl)Cl)S(=O)(=O)N(C)C)cc1 ?
Response: active

---

test: qHTS assay to identify small molecule agonists of H2AX - cell viability counter screen (AID 1224847); conditions: CHO-K1 viability, CellTiter-Glo luminescence, 3 h; series mostly up to 154 µM; further: nearly all actives have a fitted effect of over 30% in size
Records with an inconclusive call do not appear. Calls of active or inactive are those of the source. Calls come from the whole dose curve.
I would appreciate it if you answered using one of these outcomes: t = active, f = inactive

COMPOUND | ANSWER LABEL
CC1COC(Cn2cncn2)(c2ccc(Oc3ccc(Cl)cc3)cc2Cl)O1 (stereo not drawn) | t
CNC(=O)Oc1cc(C)c(SC)c(C)c1 | f
ClC1=C(Cl)[C@]2(Cl)[C@@H]3[C@@H](Cl)[C@H]4O[C@H]4[C@@H]3C1(Cl)C2(Cl)Cl | t
C[C@]12CC[C@@H](O)C[C@@H]1CC[C@@H]1[C@@H]2CC[C@]2(C)C(=O)CC[C@@H]12 | t
Nc1ccc([N+](=O)[O-])cc1 | t

Shift focus to the following entry.
Query: I would be grateful if you could indicate the recorded call for Cc1cc(C(C)(C)c2ccc(O)c(C)c2)ccc1O .
Response: t
